Please provide measured HI activity for the entries that follow.
- target of assay: Influenza virus A/California/7/2009pdm (H1N1pdm) (Influenza A virus A/California/7/2009pdm (H1N1pdm))
- experiment notes: cell-based or functional assay

1) Group 63 representative clone F083-336, Fab-PP-type antibody (Fab, V domains shown) VH: QVQLQQSGAEVKQPGSSVKVSCKASGGIFRSNAISWVRQAPGQGLEWMGGIVALFGTANYAQKFQGRVTITADESTSTVYMELSSLRSEDTARYYCARNSGYHISGFYLDYWGQGTLVTVSS VL: EIVLTQSPSSLSASVGDRVTITCRASQGISNYLAWYQQRPGKVPKLLIYTASTLLSGVPSRFSGGGSGTDYTLTISSLQPEDVATYYCQEYKSVPLTFGPGTKVEIK = > 160 µg/mL

Each of the following entries comes with a recorded value; kindly state HI activity for each.
1. Group 43 representative clone F081-007, Fab-PP-type antibody (Fab, V domains shown) VH: QVQLQQSGAEVKKPGSSVKVSCKASGGIFRKNAISWVRQAPGQGLEWMGGISAIFGTANYAQKFQGRVTITADESSNTVYMDLSRLRSEDTAIYYCASHPTYHFDKSGYRFDSWGQGTLVTVSS VL: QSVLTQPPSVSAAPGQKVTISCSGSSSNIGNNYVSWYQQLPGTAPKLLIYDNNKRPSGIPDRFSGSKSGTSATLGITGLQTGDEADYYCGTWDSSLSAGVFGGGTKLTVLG
2. Group 1 representative clone F080-227, Fab-PP-type antibody (Fab, V domains shown) VH: QVQLQESGAEVKKPGSSVKVSCKASGGIFRRNAISWVRQAPGQGLEWMGGIIAIFGTANYAQKFQGRVTITADESTSTVYMELSSLRPEDTAVYYCARGPNYYENFFDYWGQGTLVTVSS VL: DIVMTQSPSSLSASVGDRLDLTCRASQDIANSLAWYKQRPGKAPELLVFGASRLEGGVPSRFSGTRAGTDFTLTISSLQPEDLGTYFCQQYFSFPRTFGQGTTLDLR

1. > 160 µg/mL
2. > 160 µg/mL
